% Relative damage level compared to NaOH (TVirgin-TAlkalizer)/(TVirgin-TNaOH) data for keratin in hair follow.
State the answer as a number, implicitly in %.

Here is how some compounds turned out for % Relative damage level compared to NaOH (TVirgin-TAlkalizer)/(TVirgin-TNaOH).
CN(C)CC(O)CO (stereo not shown) = 6.72
NC(CO)CO = 22.32
CN(C)C(C)(C)CO = 18.05
CCC(N)(CO)CO = 29.18
NCC(O)CO (stereo not shown) = 40.80

Reported % Relative damage level compared to NaOH (TVirgin-TAlkalizer)/(TVirgin-TNaOH) for CC(C)(N)CO [AMP, aminomethyl propanol, reference compound] : what is it?
60.11

Try the compound [Na+].[OH-] [NaOH, reference compound]
100
